Reference for the values: patent US9688681B2

Experiment: log P by HPLC on reversed-phase C18 columns (OECD Guideline 117)
Assay type: physicochemical
Settings: reversed-phase C18 HPLC column, pH 7.8, HPLC RP C18, neutral range pH 7.8, 0.001 molar aqueous ammonium hydrogencarbonate/acetonitrile; read-out: logP[b]
Quick reference: chromatographic logP of the listed items.

Known results for molecules:
CCOC(=O)c1cn(-c2cccnc2)nc1N    1.32
CCOC(=O)c1cnn(-c2ccnnc2)c1N    1.12
CC(C)n1cnc2nn(-c3cccnc3)cc2c1=O    1.12
CC(C)NC(=O)c1cn(-c2cccnc2)nc1N    1.05
CCOC(=O)c1cn(-c2ccnnc2)nc1N    0.94

Find the recorded chromatographic logP belonging to CC(C)NC(=O)c1cn(-c2ccnnc2)nc1N and report it.
0.74

What value of chromatographic logP has been recorded for this entry: CCOC(=O)C(C#N)=CN(N=Cc1ccccc1)c1cccnc1
2.48

What chromatographic logP value was documented for this molecule, CCn1c(C(F)(F)F)nc2nn(-c3cccnc3)cc2c1=O ?
2.06

So what does the record say about chromatographic logP for CNC(=O)c1cnn(-c2cncnc2)c1N ?
-0.01

What does the data say about its chromatographic logP? Entry: CCOC(=O)c1cnn(-c2cncnc2)c1N
1.12

Fill in: chromatographic logP of C(=NNc1cccnc1)c1ccccc1 [VII-1, Benzaldehyde pyridin-3-yl hydrazone] is ___
2.22

// lookup chromatographic logP for CCOC(=O)c1cn(-c2cncnc2)nc1N
1.08
